Reference source: patent US10597388B2

Reported Waterhemp plant response rating by item:
tested on: waterhemp (common waterhemp, Amaranthus rudis); test: Test C greenhouse herbicide test, pre- and postemergence; type: in vivo; conditions: Postemergence, 31 g ai/ha; 0 to 100 scale (0 no effect, 100 complete control)
Please reply with the value in numeric form only.

Input: What value of Waterhemp plant response rating has been recorded for this entry: COC(=O)Oc1c(C)nn(C)c(=O)c1-c1c(C)sc2ccc(C)cc12 [Compound 80]
Output: 85

Input: What value of Waterhemp plant response rating has been recorded for this entry: Cc1ccc2sc(C)c(-c3c(OC(=O)C(C)(C)C)c(C)nn(C)c3=O)c2c1 [Compound 26]
Output: 75

Input: What value of Waterhemp plant response rating has been recorded for this entry: CCc1oc2ccc(C)cc2c1-c1c(O)c(C)nn(C)c1=O [Compound 10]
Output: 40

Input: What value of Waterhemp plant response rating has been recorded for this entry: Cc1ccc2ccccc2c1-c1c(O)c(Br)nn(C)c1=O [Compound 23]
Output: 80

Input: What value of Waterhemp plant response rating has been recorded for this entry: Cc1ccc2sc(C)c(-c3c(OC(=O)OC(C)C)c(C)nn(C)c3=O)c2c1 [Compound 66]
Output: 98

Input: What value of Waterhemp plant response rating has been recorded for this entry: CCC(=O)Oc1c(C)nn(C)c(=O)c1-c1c(C)ccc2ccccc12 [Compound 78]
Output: 75

Continue with the compound presented below.
Input: What value of Waterhemp plant response rating has been recorded for this entry: Cn1nc(Br)c(O)c(-c2cccc3ccccc23)c1=O [Compound 20]
Output: 70
